Target of assay: Histamine H3 receptor (Rattus norvegicus, UniProt Q9QYN8)
Construct: The cerebral cortical tissues were harvested and frozen on dry ice; from tissue; host or cells: cerebral cortex membranes of male Sprague-Dawley rats
Sequence (Q9QYN8 whole entry): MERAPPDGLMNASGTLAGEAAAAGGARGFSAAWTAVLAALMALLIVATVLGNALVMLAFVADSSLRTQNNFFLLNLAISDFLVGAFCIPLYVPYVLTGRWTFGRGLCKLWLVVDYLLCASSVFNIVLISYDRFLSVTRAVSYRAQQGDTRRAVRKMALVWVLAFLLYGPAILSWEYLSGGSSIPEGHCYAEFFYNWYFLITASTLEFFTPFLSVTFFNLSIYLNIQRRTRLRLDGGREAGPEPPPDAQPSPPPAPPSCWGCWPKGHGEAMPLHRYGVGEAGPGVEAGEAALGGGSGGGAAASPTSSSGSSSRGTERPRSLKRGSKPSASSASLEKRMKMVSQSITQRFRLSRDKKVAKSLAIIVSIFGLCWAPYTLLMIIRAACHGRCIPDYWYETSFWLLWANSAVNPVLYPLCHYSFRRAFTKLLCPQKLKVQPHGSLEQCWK
Procedure details: Histamine H3 receptor binding analysis, [3H]-Nα-methylhistamine competition in rat cerebral cortical membranes, with and without GTPγS
Test parameters: untreated receptor preparation (mixture of coupled and uncoupled H3 receptors); read-out: Ki (−) GTPγS
pKi: −log10 of the molar value.
Catalogue of compounds with associated pKi
Measure: pKi

1. CC(C)(C)CCOC(=O)N[C@@H]1C[C@H]1c1c[nH]cn1 ... 8.14
2. O=C(N[C@@H]1C[C@H]1c1c[nH]cn1)OCCC1CCCCC1 ... 7.53
3. N[C@H](/C=C\CCc1c[nH]cn1)CC1CCCCC1 ... 7.95
